Measured abundance fitness by item
B1: Double-stranded RNA-binding protein Staufen homolog 1, residues 183 to 249; numbered along this chain, O95793 (parent)
chain: KSEISQVFEIALKRNLPVNFEVARESGPPHMKNFVTKVSVGEFVGEGEGKSKKISKKNAAIAVLEEL

variants of: B1; experiment: abundance fitness (aPCA) (normalised: wild type 0, dead -1); higher = more abundant; growth selection in yeast, the domain comes from the species named; details: Homo sapiens
measurement_name: abundance fitness

chain_sequence: KSEISQVFEIALKRNLPVNFEVARESGPPHMKNFVTKVSVGEFVGEGAGKSKKISKKNAAIAVLEEL
measurement_name: abundance fitness
result: 0.001
--
chain_sequence: KSEISQVFEIALKDNLPVNFEVARESGPPHMKNFVTKVSVGEFVGEGEGKSKKISKKNAAIAVLEEL
measurement_name: abundance fitness
result: -0.487
--
chain_sequence: KSEISQVFEIALKRNLPVNFEVAREPGPPHMKNFVTKVSVGEFVGEGEGKSKKISKKNAAIAVLEEL
measurement_name: abundance fitness
result: -0.27
--
chain_sequence: KSEISQVFEIALKRALPVNFEVARESGPPHMKNFVTKVSVGEFVGEGEGKSKKISKKNAAIAVLEEL
measurement_name: abundance fitness
result: -0.198
--
chain_sequence: KSEISQVFEIALKRNLPVNFEVARESGPPHMKNFSTKVSVGEFVGEGEGKSKKISKKNAAIAVLEEL
measurement_name: abundance fitness
result: -0.111
--
chain_sequence: KSEISQVFEIALKRNLPVNFEVARESGPPHMKNFVTKVSCGEFVGEGEGKSKKISKKNAAIAVLEEL
measurement_name: abundance fitness
result: -0.289
--
chain_sequence: KSEISQVFCIALKRNLPVNFEVARESGPPHMKNFVTKVSVGEFVGEGEGKSKKISKKNAAIAVLEEL
measurement_name: abundance fitness
result: -0.33
